target: Estrogen receptor beta (Homo sapiens, UniProt Q92731); assay: Displacement of [3H]estradiol from human recombinant ERbeta
Sequence (Q92731 whole entry): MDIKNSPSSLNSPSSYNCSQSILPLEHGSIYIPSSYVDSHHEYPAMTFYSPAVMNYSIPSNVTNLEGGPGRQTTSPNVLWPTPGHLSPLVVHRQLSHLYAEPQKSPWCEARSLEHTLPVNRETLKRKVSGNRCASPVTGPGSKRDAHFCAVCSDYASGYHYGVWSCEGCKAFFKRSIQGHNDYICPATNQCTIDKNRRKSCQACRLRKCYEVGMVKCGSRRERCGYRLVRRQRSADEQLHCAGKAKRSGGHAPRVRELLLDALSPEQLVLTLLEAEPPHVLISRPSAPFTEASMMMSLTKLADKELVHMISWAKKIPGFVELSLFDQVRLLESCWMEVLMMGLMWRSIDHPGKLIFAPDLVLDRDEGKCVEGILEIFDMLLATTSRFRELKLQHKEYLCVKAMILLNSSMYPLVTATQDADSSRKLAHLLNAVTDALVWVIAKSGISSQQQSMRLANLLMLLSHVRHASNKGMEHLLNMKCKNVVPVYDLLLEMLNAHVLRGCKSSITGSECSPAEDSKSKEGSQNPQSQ
quantityMeasured: pIC50
Numbers only, as −log10 of the molar value.

Oc1ccc2c(Oc3ccc(OCCN4CCCCC4)cc3)c(-c3ccc(F)cc3)sc2c1
7.55
Oc1ccc2c(Oc3ccc(OCCN4CCCCC4)cc3)c(-c3ccc(Br)cc3)sc2c1
7.18
CS(=O)(=O)c1ccc(-c2sc3cc(O)ccc3c2Oc2ccc(OCCN3CCCCC3)cc2)cc1
5.74

I need pIC50 for every entry listed below, if you could help.
1. O=C(CCl)Nc1ccc(-c2sc3cc(O)ccc3c2Oc2ccc(OCCN3CCCCC3)cc2)cc1
2. Oc1ccc(-c2sc3cc(O)ccc3c2Oc2ccc(OCCN3CCCCC3)cc2)cc1
3. Oc1ccc2c(Oc3ccc(OCCN4CCCCC4)cc3)c(-c3ccccc3)sc2c1
4. Nc1ccc(-c2sc3cc(O)ccc3c2Oc2ccc(OCCN3CCCCC3)cc2)cc1

Output:
[5.63, 8.02, 7.79, 7.31]

* * *

biological target: Estrogen receptor beta (Homo sapiens, UniProt Q92731); experiment: Displacement of [3H]estradiol from human recombinant ERbeta relative to estradiol
Exercise: state measured relative binding affinity (RBA) for each of the compounds provided.
Answers are plain numbers.

Oc1ccc(-c2sc3cc(O)ccc3c2Oc2ccc(OCCN3CCCCC3)cc2)cc1
1.77
Oc1ccc2c(Oc3ccc(OCCN4CCCCC4)cc3)c(-c3ccccc3)sc2c1
1
Nc1ccc(-c2sc3cc(O)ccc3c2Oc2ccc(OCCN3CCCCC3)cc2)cc1
0.34
Oc1ccc2c(Oc3ccc(OCCN4CCCCC4)cc3)c(-c3ccc(Br)cc3)sc2c1
0.25
COc1ccc(-c2sc3cc(O)ccc3c2Oc2ccc(OCCN3CCCCC3)cc2)cc1
0.25
O=C(CCl)Nc1ccc(-c2sc3cc(O)ccc3c2Oc2ccc(OCCN3CCCCC3)cc2)cc1
0.007
Oc1ccc2c(Oc3ccc(OCCN4CCCCC4)cc3)c(-c3ccc(F)cc3)sc2c1
0.68

Now examine the next entry.
relative binding affinity (RBA) measured on "CS(=O)(=O)c1ccc(-c2sc3cc(O)ccc3c2Oc2ccc(OCCN3CCCCC3)cc2)cc1" = 0.009
